assay: Plasma concentration in Sprague-Dawley rat at 5 mg/kg after 1 hr; format: ADME, organism-based; set-up: dose 5 mg/kg
Items are presented alongside their recorded concentration at 1 h.
MEASURE: concentration at 1 h (ng/mL)

{"MOLECULE SMILES": "CCc1nc(N)nc(N)c1-c1ccc(NCc2ccc(S(C)(=O)=O)cc2)cc1", "MEASURE": "concentration at 1 h", "VALUE OBSERVED": 1020}
{"MOLECULE SMILES": "CCc1nc(N)nc(N)c1-c1ccc(NCc2ccc([N+](=O)[O-])cc2)cc1", "MEASURE": "concentration at 1 h", "VALUE OBSERVED": 270}
{"MOLECULE SMILES": "CCc1nc(N)nc(N)c1-c1ccc(NCc2ccc(Cl)cc2)cc1", "MEASURE": "concentration at 1 h", "VALUE OBSERVED": 250}
{"MOLECULE SMILES": "CCc1nc(N)nc(N)c1-c1ccc(N(C)Cc2ccc(S(C)(=O)=O)cc2)cc1", "MEASURE": "concentration at 1 h", "VALUE OBSERVED": 1280}
{"MOLECULE SMILES": "CCc1nc(N)nc(N)c1-c1ccc(NCc2ccc(S(C)(=O)=O)cc2)c(Cl)c1", "MEASURE": "concentration at 1 h", "VALUE OBSERVED": 1040}
{"MOLECULE SMILES": "Nc1nc(N)c(-c2ccc(NCc3ccc(Cl)cc3)cc2)c(COCc2ccccc2)n1", "MEASURE": "concentration at 1 h", "VALUE OBSERVED": 350}
{"MOLECULE SMILES": "CCc1nc(N)nc(N)c1-c1ccc(NCc2ccc(C(C)=O)cc2)cc1", "MEASURE": "concentration at 1 h", "VALUE OBSERVED": 120}

---

assay: Concentration in Sprague-Dawley rat brain at 5 mg/kg after 8 hrs; assay type: ADME, organism-based; parameters: dose 5 mg/kg; settings: read-out: Ct
Items are presented alongside their recorded concentration at 8 h.
MEASURE: concentration at 8 h (ng/g)

{"MOLECULE SMILES": "Nc1nc(N)c(-c2ccc(NCc3ccc(Cl)cc3)cc2)c(COCc2ccccc2)n1", "MEASURE": "concentration at 8 h", "UNIT NAME": "ng/g", "VALUE OBSERVED": 50}
{"MOLECULE SMILES": "CCc1nc(N)nc(N)c1-c1ccc(NCc2ccc(Cl)cc2)cc1", "MEASURE": "concentration at 8 h", "UNIT NAME": "ng/g", "VALUE OBSERVED": 600}

---

assay: Concentration in Sprague-Dawley rat brain at 30 mg/kg, ip after 8 hrs; assay type: ADME, organism-based; set-up: dose 30 mg/kg, route intraperitoneal; conditions: read-out: Ct
Items are presented alongside their recorded concentration at 8 h.

{"MOLECULE SMILES": "Nc1nc(N)c(-c2ccc(NCc3ccc(Cl)cc3)cc2)c(COCc2ccccc2)n1", "concentration at 8 h, ng/g": 140}
{"MOLECULE SMILES": "Nc1nc(N)c(-c2ccc(NCc3ccc(Cl)cc3)cc2)c(CCc2ccccc2)n1", "concentration at 8 h, ng/g": 400}

---

test: Inhibition of histamine receptor
pIC50: −log10 of the molar value.
MEASURE: pIC50

{"MOLECULE SMILES": "Nc1nc(N)c(-c2ccc(NCc3ccc(Cl)cc3)cc2)c(COCc2ccccc2)n1", "VALUE OBSERVED": "< 4.48"}

---

experiment: Half life in Sprague-Dawley rat at 5 mg/kg, ip; assay type: ADME, organism-based; parameters: dose 5 mg/kg, route intraperitoneal; conditions: in vivo
MEASURE: half-life (h)

{"MOLECULE SMILES": "Nc1nc(N)c(-c2ccc(NCc3ccc(Cl)cc3)cc2)c(COCc2ccccc2)n1", "MEASURE": "half-life", "VALUE OBSERVED": 3.9}

---

test: Plasma clearance in Sprague-Dawley rat at 5 mg/kg, iv

{"MOLECULE SMILES": "Nc1nc(N)c(-c2ccc(NCc3ccc(Cl)cc3)cc2)c(COCc2ccccc2)n1", "UNIT NAME": "L/h/kg", "clearance": 2.2}

---

test: Concentration in Sprague-Dawley rat brain at 5 mg/kg after 1 hr; format: ADME, organism-based; design: dose 5 mg/kg; conditions: read-out: Ct

{"MOLECULE SMILES": "CCc1nc(N)nc(N)c1-c1ccc(NCc2ccc(S(C)(=O)=O)cc2)cc1", "UNIT NAME": "ng/g", "concentration at 1 h": 50}
{"MOLECULE SMILES": "CCc1nc(N)nc(N)c1-c1ccc(NCc2ccc(S(C)(=O)=O)cc2)c(Cl)c1", "UNIT NAME": "ng/g", "concentration at 1 h": 30}
{"MOLECULE SMILES": "CCc1nc(N)nc(N)c1-c1ccc(NCc2ccc(Cl)cc2)cc1", "UNIT NAME": "ng/g", "concentration at 1 h": 2740}
{"MOLECULE SMILES": "CCc1nc(N)nc(N)c1-c1ccc(N(C)Cc2ccc(S(C)(=O)=O)cc2)cc1", "UNIT NAME": "ng/g", "concentration at 1 h": 40}
{"MOLECULE SMILES": "Nc1nc(N)c(-c2ccc(NCc3ccc(Cl)cc3)cc2)c(COCc2ccccc2)n1", "UNIT NAME": "ng/g", "concentration at 1 h": 1070}
{"MOLECULE SMILES": "CCc1nc(N)nc(N)c1-c1ccc(NCc2ccc(C(C)=O)cc2)cc1", "UNIT NAME": "ng/g", "concentration at 1 h": 420}
{"MOLECULE SMILES": "CCc1nc(N)nc(N)c1-c1ccc(NCc2ccc([N+](=O)[O-])cc2)cc1", "UNIT NAME": "ng/g", "concentration at 1 h": 530}

---

biological target: Growth hormone secretagogue receptor type 1 (Homo sapiens, UniProt Q92847); test: Displacement of [125I]ghrelin from human GHS receptor expressed in CHOK cells; type: cell-based
Sequence (Q92847 whole entry): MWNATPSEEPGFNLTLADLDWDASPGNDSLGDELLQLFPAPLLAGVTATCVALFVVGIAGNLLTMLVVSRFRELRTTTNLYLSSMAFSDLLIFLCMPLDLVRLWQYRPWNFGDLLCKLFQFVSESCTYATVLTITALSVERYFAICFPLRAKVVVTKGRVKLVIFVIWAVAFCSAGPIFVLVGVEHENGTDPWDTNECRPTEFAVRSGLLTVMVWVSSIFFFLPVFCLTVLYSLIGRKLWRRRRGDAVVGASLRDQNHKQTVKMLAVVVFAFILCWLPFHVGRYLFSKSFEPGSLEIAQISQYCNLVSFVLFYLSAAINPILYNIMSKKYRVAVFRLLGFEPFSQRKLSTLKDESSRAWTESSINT
pIC50: −log10 of the molar value.
Please map values of pIC50 to classes as shown: one: < 7; two: ≥ 7 and < 8; three: ≥ 8

{"MOLECULE SMILES": "Nc1nc(N)c(-c2ccc(NCc3ccncc3)cc2)c(COCc2ccccc2)n1", "SYSTEM NAME": "Growth hormone secretagogue receptor type 1 (Homo sapiens, UniProt Q92847)", "ASSIGNED LABEL": "two"}
{"MOLECULE SMILES": "Nc1nc(N)c(-c2ccc(CNc3ccc([N+](=O)[O-])cc3)cc2)c(COCc2ccccc2)n1", "SYSTEM NAME": "Growth hormone secretagogue receptor type 1 (Homo sapiens, UniProt Q92847)", "ASSIGNED LABEL": "three"}
{"MOLECULE SMILES": "CCc1nc(N)nc(N)c1-c1ccc(NCc2csc(Cl)c2)cc1", "SYSTEM NAME": "Growth hormone secretagogue receptor type 1 (Homo sapiens, UniProt Q92847)", "ASSIGNED LABEL": "one"}
{"MOLECULE SMILES": "CCc1nc(N)nc(N)c1-c1ccc(N(C)Cc2ccc(S(C)(=O)=O)cc2)cc1", "SYSTEM NAME": "Growth hormone secretagogue receptor type 1 (Homo sapiens, UniProt Q92847)", "ASSIGNED LABEL": "three"}
{"MOLECULE SMILES": "Nc1nc(N)c(-c2ccc(NCc3ccccc3)cc2)c(COCc2ccccc2)n1", "SYSTEM NAME": "Growth hormone secretagogue receptor type 1 (Homo sapiens, UniProt Q92847)", "ASSIGNED LABEL": "two"}
{"MOLECULE SMILES": "CCc1nc(N)nc(N)c1-c1ccc(NCc2ccc(Cl)cc2)cc1", "SYSTEM NAME": "Growth hormone secretagogue receptor type 1 (Homo sapiens, UniProt Q92847)", "ASSIGNED LABEL": "one"}
{"MOLECULE SMILES": "Nc1nc(N)c(-c2ccc(NCc3ccc(Cl)s3)cc2)c(COCc2ccccc2)n1", "SYSTEM NAME": "Growth hormone secretagogue receptor type 1 (Homo sapiens, UniProt Q92847)", "ASSIGNED LABEL": "two"}
{"MOLECULE SMILES": "CCc1nc(N)nc(N)c1-c1ccc(NCc2ccc(C(C)=O)cc2)cc1", "SYSTEM NAME": "Growth hormone secretagogue receptor type 1 (Homo sapiens, UniProt Q92847)", "ASSIGNED LABEL": "two"}
{"MOLECULE SMILES": "CCc1nc(N)nc(N)c1-c1ccc(NCc2cc(F)c(S(=O)(=O)C(F)(F)F)c(F)c2)cc1", "SYSTEM NAME": "Growth hormone secretagogue receptor type 1 (Homo sapiens, UniProt Q92847)", "ASSIGNED LABEL": "two"}
{"MOLECULE SMILES": "Nc1nc(N)c(-c2ccc(NCc3ccc(Cl)cc3)cc2)c(COCc2ccccc2)n1", "SYSTEM NAME": "Growth hormone secretagogue receptor type 1 (Homo sapiens, UniProt Q92847)", "ASSIGNED LABEL": "two"}
{"MOLECULE SMILES": "CC(=O)c1ccc(CNc2ccc(-c3c(N)nc(N)nc3COCc3ccccc3)cc2)cc1", "SYSTEM NAME": "Growth hormone secretagogue receptor type 1 (Homo sapiens, UniProt Q92847)", "ASSIGNED LABEL": "three"}
{"MOLECULE SMILES": "Nc1nc(N)c(-c2ccc(NCc3ccnc(Cl)c3)cc2)c(COCc2ccccc2)n1", "SYSTEM NAME": "Growth hormone secretagogue receptor type 1 (Homo sapiens, UniProt Q92847)", "ASSIGNED LABEL": "three"}
{"MOLECULE SMILES": "CCc1nc(N)nc(N)c1-c1ccc(CNc2ccc(Cl)cc2)cc1", "SYSTEM NAME": "Growth hormone secretagogue receptor type 1 (Homo sapiens, UniProt Q92847)", "ASSIGNED LABEL": "one"}
{"MOLECULE SMILES": "Nc1nc(N)c(-c2ccc(NCc3ccc(Cl)cc3)cc2)c(CCc2ccccc2)n1", "SYSTEM NAME": "Growth hormone secretagogue receptor type 1 (Homo sapiens, UniProt Q92847)", "ASSIGNED LABEL": "one"}
{"MOLECULE SMILES": "Nc1nc(N)c(-c2ccc(NCc3cc(F)c(S(=O)(=O)C(F)(F)F)c(F)c3)cc2)c(COCc2ccccc2)n1", "SYSTEM NAME": "Growth hormone secretagogue receptor type 1 (Homo sapiens, UniProt Q92847)", "ASSIGNED LABEL": "three"}

Reference for the values: ChEMBL document CHEMBL1146071
